Data origin: patent US10357481B2

Provide the reported Ki of each item.
# testSystem: human PDE2A1 (Homo sapiens, UniProt O00408)
# Construct: GST; purchased BPS Bioscience (San Diego, Calif.) 60020; host or cells: insect cells
# Sequence (O00408 1-920 isoform O00408-2): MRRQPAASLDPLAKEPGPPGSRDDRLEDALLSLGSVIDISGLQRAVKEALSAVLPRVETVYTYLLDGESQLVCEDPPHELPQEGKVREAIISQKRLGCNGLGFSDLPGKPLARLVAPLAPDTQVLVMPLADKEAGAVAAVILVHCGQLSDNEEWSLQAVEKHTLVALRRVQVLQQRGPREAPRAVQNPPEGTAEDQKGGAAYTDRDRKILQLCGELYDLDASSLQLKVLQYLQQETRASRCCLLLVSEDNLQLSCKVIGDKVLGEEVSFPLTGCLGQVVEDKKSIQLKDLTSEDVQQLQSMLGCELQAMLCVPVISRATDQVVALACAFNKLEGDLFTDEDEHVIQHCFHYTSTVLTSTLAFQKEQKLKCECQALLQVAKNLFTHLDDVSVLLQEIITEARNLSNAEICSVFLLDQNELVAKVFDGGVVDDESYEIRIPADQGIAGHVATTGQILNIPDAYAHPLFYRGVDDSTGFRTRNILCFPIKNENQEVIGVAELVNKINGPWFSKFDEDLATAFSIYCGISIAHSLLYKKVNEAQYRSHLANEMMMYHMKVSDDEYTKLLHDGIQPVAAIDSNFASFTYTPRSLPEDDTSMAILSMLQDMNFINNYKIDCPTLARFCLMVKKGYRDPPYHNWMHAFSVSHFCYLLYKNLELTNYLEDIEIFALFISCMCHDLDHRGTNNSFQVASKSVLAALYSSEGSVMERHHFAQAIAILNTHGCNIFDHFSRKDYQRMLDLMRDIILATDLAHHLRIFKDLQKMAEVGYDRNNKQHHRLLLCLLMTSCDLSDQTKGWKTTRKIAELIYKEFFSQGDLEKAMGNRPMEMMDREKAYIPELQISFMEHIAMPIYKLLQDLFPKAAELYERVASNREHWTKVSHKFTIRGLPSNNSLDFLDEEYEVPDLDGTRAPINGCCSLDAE
# assayProcedure: IMAP FP PDE selectivity panel, human PDE2A1
# Assay type: biochemical
# conditionLabel: Human PDE2 Ki (nM) Lab B
Answers are plain numbers, in nM.

Worked set:
{"molecule": "Cc1cc(N[C@@H](c2ccc(OC(F)(F)F)c(F)c2)C(C)(C)O)n2ncnc2n1 (single isomer, unassigned)", "Ki [nM]": 5.4}
{"molecule": "Cc1cc(NC(c2ccc(S(F)(F)(F)(F)F)cc2)C(C)(C)O)n2ncnc2n1 (single isomer, unassigned)", "Ki [nM]": 4.6}
{"molecule": "Cc1cc(NC2(c3ccc(C(F)(F)F)cc3)CC2)n2ncnc2n1", "Ki [nM]": 79}
{"molecule": "Cc1cc(N[C@@H](c2ccc(C(F)(F)F)c(F)c2)C(C)(C)O)n2ncnc2n1", "Ki [nM]": 10}

Task: Need Ki, item Cc1cc(NC2(c3ccc(C(F)(F)F)c(F)c3)CC2)n2ncnc2n1
Output: 21
